Catalogue of pIC50 values
Test system: HL-60
Assay method text: Antiproliferative activity, MTT assay
Type: cell-based, human
Condition: read-out: IC50 HL-60; 48 h of treatment; mean ± SEM
pIC50: −log10 of the molar value.
Attribute measured: pIC50

>  <Smiles record>
CCCNC(=O)Nc1ccc(S(=O)(=O)Oc2cccnc2C)cc1

>  <Qualifier sign>
=

>  <Endpoint value>
4.46

$$$$
>  <Smiles record>
CCNC(=O)Nc1ccc(S(=O)(=O)Oc2cnccc2Br)cc1.Cl

>  <Qualifier sign>
=

>  <Endpoint value>
4.10

$$$$
>  <Smiles record>
CCNC(=O)Nc1ccc(S(=O)(=O)Oc2cccnc2C(C)C)cc1

>  <Qualifier sign>
=

>  <Endpoint value>
4.54

$$$$
>  <Smiles record>
Cl.O=C(NCCCl)Nc1ccc(S(=O)(=O)Oc2cccnc2Br)cc1

>  <Qualifier sign>
<

>  <Endpoint value>
4.30

$$$$
>  <Smiles record>
Cl.O=C(NCCCl)Nc1ccc(S(=O)(=O)Oc2cccnc2I)cc1

>  <Qualifier sign>
=

>  <Endpoint value>
4.72

$$$$
>  <Smiles record>
Cl.O=C(NCCCl)Nc1ccc(S(=O)(=O)Oc2cnccc2I)cc1

>  <Qualifier sign>
=

>  <Endpoint value>
5.52

$$$$
>  <Smiles record>
CCCNC(=O)Nc1ccc(S(=O)(=O)Oc2cccnc2C)cc1.Cl

>  <Qualifier sign>
=

>  <Endpoint value>
4.82

$$$$
>  <Smiles record>
CCCNC(=O)Nc1ccc(S(=O)(=O)Oc2cccnc2C(C)C)cc1

>  <Qualifier sign>
=

>  <Endpoint value>
4.62

$$$$
>  <Smiles record>
CCNC(=O)Nc1ccc(S(=O)(=O)Oc2cnccc2C)cc1.Cl

>  <Qualifier sign>
<

>  <Endpoint value>
4.00

$$$$
>  <Smiles record>
CCCNC(=O)Nc1ccc(S(=O)(=O)Oc2cccnc2I)cc1

>  <Qualifier sign>
=

>  <Endpoint value>
4.62

$$$$
>  <Smiles record>
CCNC(=O)Nc1ccc(S(=O)(=O)Oc2cccnc2Br)cc1

>  <Qualifier sign>
=

>  <Endpoint value>
4.40

$$$$
>  <Smiles record>
CCNC(=O)Nc1ccc(S(=O)(=O)Oc2cnccc2I)cc1.Cl

>  <Qualifier sign>
=

>  <Endpoint value>
4.49

$$$$
